Test system: 786-0 renal
Assay: NCI tumour cell line growth inhibition, 48 h
Observed Property: TGI

Recorded TGI, per entry:
[[record]]
compound = "C=C=C(CC)C(C(=O)OC)N(CC)CC (configuration not stated)"
result = "> 100 µM"

[[record]]
compound = "Cc1c(C(=O)c2ccccc2C(=O)O)c2ccccc2n1C"
result = "> 100 µM"

[[record]]
compound = "CC1(C)[C@@H](Cn2cnc3c(N)ncnc32)CC[C@@]1(C)CO"
result = "> 100 µM"

[[record]]
compound = "C(=N\\OCc1ccccc1)/c1ncccc1C1OCCO1"
result = "> 100 µM"

[[record]]
compound = "CC(C)=CC(=O)O[C@H]1C(=O)O[C@@H]2C[C@H]3[C@H](C)C(=O)C(O[C@@H]4O[C@H](CO)[C@@H](O)[C@H](O)[C@H]4O)=C[C@]3(C)[C@H]3[C@@H](O)[C@H](O)[C@]4(C(=O)O)OC[C@]32[C@@H]14"
result = "> 100 µM"


Recorded TGI of CNc1ccc(-c2nc3cc(C)ccc3o2)cc1 , please. > 100 µM

Can you check N#Cc1cnc2cc(OC[C@@H](O)CO)c(NC(=O)CC3CSSC3)cc2c1Nc1ccc(OCc2cccc(F)c2)c(Cl)c1 next? 4.57 µM

Can you check NNc1cccc(/C=C/c2ccccc2)cc1=O next? > 100 µM

Can you check CCNC(=O)C#CC(=O)NCC next? > 100 µM

Can you check Nc1nnc2cc(Cl)ccc2n1 next? > 100 µM

Can you check CCOC(=O)Oc1cc2c(c(OC)c1OC)-c1ccc(SC)c(=O)cc1C(NC(=O)C(F)(F)F)CC2 (configuration not stated) next? 13 µM

Can you check O=[N+]([O-])/C(C(Cl)=C(Cl)Cl)=C1\NCCO1 next? > 100 µM

Can you check Cc1cc(-c2[nH]c(C(=O)O)cc2I)on1 next? > 100 µM

Can you check CCOc1cc2c(NCCCN(CCO)CCO)ncnc2c(OCC)c1OCC next? > 100 µM

Can you check Cn1ccn2c3nc4ccccc4nc3c(=O)c(C#N)c12 next? > 89.9 µM

Can you check CC(C)C(C/C=C1\CC(CO)(COC(=O)c2ccccc2)OC1=O)C(C)C (configuration not stated) next? 28.3 µM

Can you check O=C(/C=C/c1ccsc1)c1ccco1 next? 24.4 µM

Can you check N#Cc1c(SCc2ccccc2)nc(-c2ccccc2)[nH]c1=S next? 48 µM

Can you check CC(C)c1ccc(/C(C(=O)O)=C(\O)C(=O)O)cc1 next? > 100 µM

Can you check CCOC(=O)C(=Cc1ccccc1[N+](=O)[O-])C(=O)OCC next? 11.8 µM

Can you check CC(=O)OC1CC2C(C)(C)C(=O)C=C[C@]2(C)C2CCC3(C)C(c4ccoc4)C(=O)[C@H]4O[C@]43[C@]12C (some centres not stated) next? 35.5 µM

Can you check CC(C)[C@@H]1CC[C@@H](C)C[C@H]1OC(=O)/C=C1/C2C=CC(O2)C1C(=O)O[C@@H]1C[C@H](C)CC[C@H]1C(C)C (some centres not stated) next? > 100 µM

All figures here come from PubChem BioAssay (NCI).
